assay: Displacement of [3H]NCS-382 from GHB binding site in Sprague-Dawley rat brain synaptosomal membranes after 1 hr by scintillation counting method
pKi: −log10 of the molar value.
So basically: pKi at 5 or higher? That is condition met. Lower than 5? That is condition not met.

As a guide, the following entries are already answered.
O=C(O)C#CCO: condition met
O=C(O)/C=C/C(O)c1ccc(OCc2ccccc2)cc1 (stereo not given): condition met
C=CCC1=C(C(=O)O)CCC1O (stereo not given): condition not met
O=C(O)C#CC(O)c1ccc(OCc2ccccc2)cc1 (racemic): condition met
O=C(O)[C@H]1CCC[C@@H](O)C1 (relative stereo): condition not met

Qu. Is pKi at least 5? Consider O=C(O)/C=C/C(O)c1ccc(Cc2ccccc2)cc1 (stereo in doubt; (-)-9e)
Ans. condition met

Qu. // same read-out, input: O=C(O)CCCO [OXYBATE]
Ans. condition met

Qu. // same read-out, input: O=C(O)/C=C/C(O)c1ccc(CCc2ccccc2)cc1 (racemic)
Ans. condition met
